Test system: Enterococcus faecium
Assay explanation: Antimicrobial activity against vancomycin-resistant Enterococcus faecium isolate 15
Type: functional
Below, each of the molecules is paired with its reported MIC value.

Check out these entries, answers already filled in.
* CC1(CCC(=O)Nc2c(O)ccc(C(=O)O)c2O)C(=O)C=CC23CC4CC(OC4(c4ccccc4)C2)C31 (stereo not drawn) | ≤ 0.5 µg/mL
* CC12C[C@@]34C=CC(=O)[C@@](C)(CCC(=O)Nc5c(O)ccc(C(=O)O)c5O)C3[C@H](CC1C4)O2 (stereo partly drawn) | ≤ 0.5 µg/mL

Continue with the molecule presented below.
Input: Tell me measured MIC for CN[C@H](CC(C)C)C(=O)N[C@H]1C(=O)N[C@@H](CC(N)=O)C(=O)N[C@H]2C(=O)N[C@H]3C(=O)N[C@H](C(=O)N[C@H](C(=O)O)c4cc(O)cc(O)c4-c4cc3ccc4O)[C@H](O)c3ccc(c(Cl)c3)Oc3cc2cc(c3O[C@@H]2O[C@H](CO)[C@@H](O)[C@H](O)[C@H]2O[C@H]2C[C@](C)(N)[C@H](O)[C@H](C)O2)Oc2ccc(cc2Cl)[C@H]1O please.
Output: > 128 µg/mL
